Give pIC50 for every item shown.
study-target: Human immunodeficiency virus type 1 reverse transcriptase (Human immunodeficiency virus 1, UniProt Q72547, Y181I)
assay-protocol: Inhibition of HIV1 reverse transcriptase p66/p51 Y181I mutant
experimental-setup: read-out: IC50
pIC50: −log10 of the molar value.

# count of solved cases: 2
{"columns": ["compound", "readout", "test-value"],
 "data": [
  ["Cc1cc(C)cc(S(=O)(=O)c2c(C(=O)NC(C)CS(N)(=O)=O)[nH]c3ccc(Cl)c(F)c23)c1 (stereo not drawn)", "pIC50", "< 4.40"],
  ["Cc1cc(C)cc(S(=O)(=O)c2c(C(=O)NCCS(N)(=O)=O)[nH]c3ccc(Br)cc23)c1", "pIC50", "< 4.40"]
]}

Pending compound:
Return value of pIC50 for input Cc1cc(C)cc(S(=O)(=O)c2c(C(=O)NC(C)CC(N)=O)[nH]c3ccc(Cl)c(F)c23)c1 (stereo not drawn) , no commentary.
< 4.40
